Kindly state activation at 0.1 µM for each of the entries shown.
- TARGET_OR_TEST_SYSTEM: UniProt O14842
- PROCEDURE_TEXT: agonistic activity on hGPR40-CHO stably transfected cells (Fluo-4 / FLIPR)
- Format: cell-based
- EXPERIMENTAL_SETUP: 100 nM; relative to linoleic acid well
Give bare numbers, in %.

Example entries begin here.
- Cc1ccc(-c2cccc(CNc3ccc(OCC(=O)O)c(F)c3)c2)c(Cl)c1: 73
- O=C(O)COc1ccc(NCc2cccc(-c3ccccc3F)c2)cc1: 61

Below are some compounds; for each one, tell me its activation at 0.1 µM.
1. O=C(O)COc1ccc(NCc2cccc(-c3ccccc3C(F)(F)F)c2)cc1F
2. CCOc1ccc(-c2cccc(CNc3ccc(OCC(=O)O)c(F)c3)c2)c(C)c1
3. Cc1ccc(-c2cccc(CNc3ccc(OCC(=O)O)cc3)c2)c(Cl)c1
4. Cc1noc(C)c1-c1cccc(CNc2ccc(OCC(=O)O)c(F)c2)c1
5. COc1cc(C)c(-c2cccc(CNc3ccc(OCC(=O)O)c(F)c3)c2)c(C)c1
6. Cc1cc(OC(F)(F)F)cc(C)c1-c1cccc(CNc2ccc(OCC(=O)O)c(F)c2)c1
7. COCOc1cc(C)c(-c2cccc(CNc3ccc(OCC(=O)O)cc3)c2)c(C)c1

Output:
86
85
69
54
68
64
60

Below are some compounds; for each one, tell me its activation at 0.1 µM.
1. O=C(O)COc1ccc(NCc2cccc(-c3ccccc3Cl)c2)cc1F
2. COc1ccc(-c2cccc(CNc3ccc(OCC(=O)O)cc3)c2)c(C)c1
3. COCCOc1cc(C)c(-c2cccc(CNc3ccc(OCC(=O)O)c(F)c3)c2)c(C)c1
4. Cc1ccccc1-c1cccc(CNc2ccc(OCC(=O)O)cc2)c1
5. CCOCOc1cc(C)c(-c2cccc(CNc3ccc(OCC(=O)O)c(F)c3)c2)c(C)c1
6. CCOc1ccc(-c2cccc(CNc3ccc(OCC(=O)O)cc3)c2)c(C)c1
7. Cc1ccccc1-c1cccc(CNc2ccc(OCC(=O)O)c(F)c2)c1

Output:
1: 84; 2: 75; 3: 62; 4: 82; 5: 63; 6: 79; 7: 87

Below are some compounds; for each one, tell me its activation at 0.1 µM.
1. CCOCOc1cc(C)c(-c2cccc(CNc3ccc(OCC(=O)O)cc3)c2)c(C)c1
2. CCOCCOc1cc(C)c(-c2cccc(CNc3ccc(OCC(=O)O)c(F)c3)c2)c(C)c1

Output:
1. 59
2. 56

Below are some compounds; for each one, tell me its activation at 0.1 µM.
1. CC(C)c1ccccc1-c1cccc(CNc2ccc(OCC(=O)O)c(F)c2)c1
2. COc1ccccc1-c1cccc(CNc2ccc(OCC(=O)O)c(F)c2)c1
3. O=C(O)COc1ccc(NCc2cccc(-c3ccccc3)c2)cc1F
4. O=C(O)COc1ccc(NCc2cccc(-c3ccccc3OC(F)(F)F)c2)cc1

Output:
1: 63; 2: 53; 3: 46; 4: 46

Below are some compounds; for each one, tell me its activation at 0.1 µM.
1. CCOCCOc1cc(C)c(-c2cccc(CNc3ccc(OCC(=O)O)cc3)c2)c(C)c1
2. Cc1cc(OC(C)C)ccc1-c1cccc(CNc2ccc(OCC(=O)O)cc2)c1

Output:
1. 50
2. 62

Below are some compounds; for each one, tell me its activation at 0.1 µM.
1. CCCOc1ccc(-c2cccc(CNc3ccc(OCC(=O)O)c(F)c3)c2)c(C)c1
2. O=C(O)COc1ccc(NCc2cccc(-c3ccccc3F)c2)cc1F

Output:
1: 75; 2: 65

Below are some compounds; for each one, tell me its activation at 0.1 µM.
1. COCOc1cc(C)c(-c2cccc(CNc3ccc(OCC(=O)O)c(F)c3)c2)c(C)c1
2. CCOc1cc(C)c(-c2cccc(CNc3ccc(OCC(=O)O)c(F)c3)c2)c(C)c1
3. COc1ccc(-c2cccc(CNc3ccc(OCC(=O)O)c(F)c3)c2)c(C)c1
4. CCCOc1cc(C)c(-c2cccc(CNc3ccc(OCC(=O)O)c(F)c3)c2)c(C)c1
5. Cc1cc(OCCCS(C)(=O)=O)cc(C)c1-c1cccc(CNc2ccc(OCC(=O)O)c(F)c2)c1
6. N#Cc1ccccc1-c1cccc(CNc2ccc(OCC(=O)O)c(F)c2)c1

Output:
64
79
80
67
68
45

Below are some compounds; for each one, tell me its activation at 0.1 µM.
1. O=C(O)COc1ccc(NCc2cccc(-c3ccccc3OC(F)(F)F)c2)cc1F
2. O=C(O)COc1ccc(NCc2cccc(-c3ccccc3Cl)c2)cc1

Output:
[50, 80]

====

- TARGET_OR_TEST_SYSTEM: UniProtKB O14842
- PROCEDURE_TEXT: agonistic activity on hGPR40-CHO stably transfected cells (Fluo-4 / FLIPR)
- EXPERIMENTAL_SETUP: mean ± SD of three determinations
pEC50: −log10 of the molar value.
Short version: pEC50 at least 8 is label 1, less is label 0.

The following molecules have reported results that may help.
* CCCOc1ccc(-c2cccc(CNc3ccc(OCC(=O)O)c(F)c3)c2)c(C)c1 [Compound I-15] | label 0
* COc1ccc(-c2cccc(CNc3ccc(OCC(=O)O)c(F)c3)c2)c(C)c1 [Compound I-19] | label 0

Task: Is pEC50 at least 8? Consider O=C(O)COc1ccc(NCc2cccc(-c3ccccc3Cl)c2)cc1 [Compound I-24]
Output: label 0

Task: Thanks! And O=C(O)COc1ccc(NCc2cccc(-c3ccccc3C(F)(F)F)c2)cc1 [Compound I-28] ?
Output: label 0

Task: Thanks! And Cc1ccccc1-c1cccc(CNc2ccc(OCC(=O)O)cc2)c1 [Compound I-25] ?
Output: label 0

Task: Thanks! And Cc1ccccc1-c1cccc(CNc2ccc(OCC(=O)O)c(F)c2)c1 [Compound I-3] ?
Output: label 1

====

- PROCEDURE_TEXT: Evaluation of hepatotoxicity: serum ALT, AST and TBIL after 4 weeks of dosing
- Assay type: in vivo
- EXPERIMENTAL_SETUP: serum, once a day for consecutive 4 weeks; x ± SD, n = 6
Kindly state AST (IU/L) for each of the entries shown.
One number for each entry, in IU/L.

Example entries begin here.
* Cc1cc(OCCCS(C)(=O)=O)cc(C)c1-c1cccc(COc2ccc3c(c2)OC[C@H]3CC(=O)O)c1 [TAK-875, reference compound] | 149.33
* COc1ccc(-c2cccc(CNc3ccc(OCC(=O)O)c(F)c3)c2)c(C)c1 [Compound I-19] | 123.45
* O=C(O)COc1ccc(NCc2cccc(-c3ccccc3C(F)(F)F)c2)cc1 [Compound I-28] | 119.68
* Cc1ccccc1-c1cccc(CNc2ccc(OCC(=O)O)c(F)c2)c1 [Compound I-3] | 103.27
* O=C(O)COc1ccc(NCc2cccc(-c3ccccc3Cl)c2)cc1 [Compound I-24] | 116.78
* O=C(O)COc1ccc(NCc2cccc(-c3ccccc3C(F)(F)F)c2)cc1F [Compound I-8] | 112.85
* Cc1ccccc1-c1cccc(CNc2ccc(OCC(=O)O)cc2)c1 [Compound I-25] | 116.54
* CCOc1ccc(-c2cccc(CNc3ccc(OCC(=O)O)c(F)c3)c2)c(C)c1 [Compound I-13] | 121.37

Task: Dear colleague, I am looking for the recorded AST (IU/L) of the following molecule: O=C(O)COc1ccc(NCc2cccc(-c3ccccc3Cl)c2)cc1F [Compound I-2]
Output: 118.43

====

- TARGET_OR_TEST_SYSTEM: hGPR40 receptor (Homo sapiens (Human), UniProt O14842)
- Sequence (O14842 whole entry): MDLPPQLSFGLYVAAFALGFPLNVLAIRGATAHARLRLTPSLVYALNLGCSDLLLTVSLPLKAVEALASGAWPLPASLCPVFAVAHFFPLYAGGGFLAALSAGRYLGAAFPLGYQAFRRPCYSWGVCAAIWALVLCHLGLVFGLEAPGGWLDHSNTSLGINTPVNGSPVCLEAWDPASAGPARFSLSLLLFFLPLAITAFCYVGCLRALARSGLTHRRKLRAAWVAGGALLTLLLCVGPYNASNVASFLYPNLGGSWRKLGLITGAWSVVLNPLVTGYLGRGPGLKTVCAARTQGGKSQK
- PROCEDURE_TEXT: agonistic activity on hGPR40-CHO stably transfected cells (Fluo-4 / FLIPR)
- Type: cell-based
- EXPERIMENTAL_SETUP: 100 nM; relative to linoleic acid well
- From the text: Experimental example 1 The agonistic activity of the compounds of the present invention on hGPR40-CHO stably transfected cells The present invention used the following method to determine the GPR40 agonistic activity of the compounds of the invention: […]
Kindly state Agonistic activity at 100 nM (%) for each of the entries shown.
Answers are plain numbers, in %.

Example entries begin here.
- O=C(O)COc1ccc(NCc2cccc(-c3ccccc3C(F)(F)F)c2)cc1: 81
- Cc1cc(OC(F)(F)F)ccc1-c1cccc(CNc2ccc(OCC(=O)O)cc2)c1: 76
- CCOc1cc(C)c(-c2cccc(CNc3ccc(OCC(=O)O)cc3)c2)c(C)c1: 70
- Cc1cc(OCCCS(C)(=O)=O)cc(C)c1-c1cccc(COc2ccc3c(c2)OC[C@H]3CC(=O)O)c1 [TAK-875, reference compound]: 65

Next molecule, please.
Task: Dear colleague, I am looking for the recorded Agonistic activity at 100 nM (%) of the following molecule: Cc1cc(OC(F)(F)F)cc(C)c1-c1cccc(CNc2ccc(OCC(=O)O)cc2)c1
Output: 62

====

ENDPOINT: melting point

Example entries begin here.
* COc1ccc(-c2cccc(CNc3ccc(OCC(=O)O)cc3)c2)c(C)c1 [Compound I-21] | 121 to 124 °C
* CCOCOc1cc(C)c(-c2cccc(CNc3ccc(OCC(=O)O)c(F)c3)c2)c(C)c1 [Compound I-40] | 136 to 139 °C
* Cc1cc(OC2CCCCC2)cc(C)c1-c1cccc(CNc2ccc(OCC(=O)O)c(F)c2)c1 [Compound I-44] | 136 to 138 °C
* Cc1cc(OC(F)(F)F)ccc1-c1cccc(CNc2ccc(OCC(=O)O)c(F)c2)c1 [Compound I-35] | 123 to 125 °C
* CCCCCCOc1cc(C)c(-c2cccc(CNc3ccc(OCC(=O)O)cc3)c2)c(C)c1 [Compound I-43] | 130 to 132 °C

Below are some compounds; for each one, tell me its melting point.
1. COc1ccccc1-c1cccc(CNc2ccc(OCC(=O)O)c(F)c2)c1 [Compound I-6]
2. CCCCCCOc1cc(C)c(-c2cccc(CNc3ccc(OCC(=O)O)c(F)c3)c2)c(C)c1 [Compound I-42]
3. Cc1cc(OC(F)(F)F)cc(C)c1-c1cccc(CNc2ccc(OCC(=O)O)c(F)c2)c1 [Compound I-34]

Output:
["95 to 96 °C", "132 to 135 °C", "127 to 130 °C"]

Value source: patent US11905230B2
